Cited source: ChEMBL document CHEMBL1212853

ASSAY SYSTEM: UniProtKB Q7ZJM1
Sequence (Q7ZJM1 whole entry): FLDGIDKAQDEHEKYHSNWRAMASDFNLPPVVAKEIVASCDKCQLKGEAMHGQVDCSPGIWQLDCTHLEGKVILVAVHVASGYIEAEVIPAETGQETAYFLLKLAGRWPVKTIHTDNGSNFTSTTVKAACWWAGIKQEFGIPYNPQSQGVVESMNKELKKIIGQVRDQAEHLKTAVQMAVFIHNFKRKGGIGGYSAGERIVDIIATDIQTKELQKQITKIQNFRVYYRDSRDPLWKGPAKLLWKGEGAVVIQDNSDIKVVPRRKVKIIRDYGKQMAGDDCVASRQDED
# label = Criterion met if IC50 < 2 µM else Criterion not met

Check if IC50 falls below 2 µM for COc1cccc2c1c(C(=O)/C=C(\O)C(=O)O)cn2Cc1cccc(Cl)c1 . Criterion met

In plain terms, does COc1cccc2c1c(C(=O)/C=C(\O)C(=O)O)cn2Cc1ccc(F)c(Cl)c1 come in under 2 µM for IC50? Criterion met

Does the reported IC50 of the following compound sit strictly below 2 µM? COc1cccc2c1c(C(=O)/C=C(\O)C(=O)O)cn2Cc1ccc(F)cc1Cl Criterion met

Problem: For the compound COc1cccc2c1c(C(=O)/C=C(\O)C(=O)O)cn2Cc1cccc(F)c1Cl , is IC50 under 2 µM? Criterion not met

I'd appreciate it if you could check whether COc1cccc2c1c(C(=O)/C=C(\O)C(=O)O)cn2Cc1cc(Cl)ccc1F has IC50 smaller than 2 µM. Criterion met

Identify whether the compound COc1cccc2c1c(C(=O)/C=C(\O)C(=O)O)cn2Cc1cc(F)cc(Cl)c1 records IC50 below 2 µM. Criterion met

# strict comparison: is reported IC50 < 2 µM? input = CCOC(=O)/C(O)=C/C(=O)c1cn(Cc2c(F)cccc2Cl)c2cccc(OC)c12 Criterion not met

Please let me know if COc1cccc2c1c(C(=O)/C=C(\O)C(=O)O)cn2Cc1ccc(Cl)c(F)c1 shows IC50 below 2 µM. Criterion not met

# strict comparison: is reported IC50 < 2 µM? input = CCOC(=O)/C(O)=C/C(=O)c1cn(Cc2cc(F)ccc2Cl)c2cccc(OC)c12 Criterion not met

Threshold test, IC50 < 2 µM: CCOC(=O)/C(O)=C/C(=O)c1cn(Cc2cccc(Cl)c2)c2cccc(OC)c12 Criterion not met

Report whether reported IC50 is lower than 2 µM (strictly) for CCOC(=O)/C(O)=C/C(=O)c1cn(Cc2cccc(Cl)c2F)c2cccc(OC)c12 Criterion met

Just wondering, is IC50 of COc1cccc2c1c(C(=O)/C=C(\O)C(=O)O)cn2Cc1cccc(Cl)c1F below 2 µM? Criterion met

Field: below-cutoff. Rule: recorded IC50 strictly less than 2 µM. Subject: CCOC(=O)/C(O)=C/C(=O)c1cn(Cc2ccc(Cl)cc2)c2cccc(OC)c12 Criterion not met

Field: below-cutoff. Rule: recorded IC50 strictly less than 2 µM. Subject: CCOC(=O)/C(O)=C/C(=O)c1cn(Cc2ccc(Cl)c(F)c2)c2cccc(OC)c12 Criterion not met

IC50 strictly < 2 µM for this compound? CCOC(=O)/C(O)=C/C(=O)c1cn(Cc2cccc(F)c2Cl)c2cccc(OC)c12 Criterion met

Does the reported IC50 of COc1cccc2c1c(C(=O)/C=C(\O)C(=O)O)cn2Cc1ccccc1Cl stay below 2 µM? Criterion met

Given COc1cccc2c1c(C(=O)/C=C(\O)C(=O)O)cn2Cc1c(F)cccc1Cl , is recorded IC50 strictly lower than 2 µM? Criterion met

Dear colleague, could you confirm whether IC50 of CCOC(=O)/C(O)=C/C(=O)c1cn(Cc2cc(Cl)ccc2F)c2cccc(OC)c12 falls below 2 µM? Thanks. Criterion met

Determine whether this compound shows IC50 lower than 2 µM (ties excluded): COc1cccc2c1c(C(=O)/C=C(\O)C(=O)O)cn2Cc1ccc(Cl)cc1F Criterion not met

IC50 strictly < 2 µM for this compound? CCOC(=O)/C(O)=C/C(=O)c1cn(Cc2ccccc2Cl)c2cccc(OC)c12 Criterion not met
